- Target system: KRAS^G12C (Homo sapiens, UniProt P01116, C118A/G12C)
- Sequence (P01116 1-169 isoform P01116-2 G12C/C118A): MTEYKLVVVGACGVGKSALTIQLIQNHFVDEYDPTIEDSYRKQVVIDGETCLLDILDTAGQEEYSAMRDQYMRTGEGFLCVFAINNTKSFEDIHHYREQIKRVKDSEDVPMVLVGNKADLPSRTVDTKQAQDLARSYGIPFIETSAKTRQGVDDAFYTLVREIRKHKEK
- Test: Coupled Nucleotide Exchange Assay
- Measurement setup: GDP-bound KRAS (aa 1-169) G12C/C118A; 2 h compound pre-incubation; SOS-mediated exchange, 30 min; cRAF binding (AlphaLISA)
pIC50: −log10 of the molar value.
Result type: pIC50

Use the examples below as a reference point.
Compound: C=CC(=O)N1CCN([C@@H]2CN(c3cc(N4CC[C@@]5(CC4C)OCCc4ncsc45)nc(C(F)(F)F)n3)[C@@H]2C)CC1 (single isomer, unassigned) [Compound 3-091-2]
pIC50: 6.05

Compound: C=CC(=O)N1CCN(C2CN(c3cc(N4CCC5(CC4)CN(CC)C(=O)O5)nc(C(F)(F)F)c3C#N)C2)CC1 [Compound 3-033]
pIC50: 5.21

Compound: C=CC(=O)N1CCN(C2CN(c3cc(N4CCC5(CCC(=O)N5C)CC4)nc(C(F)(F)F)c3C#N)C2)CC1 [Compound 3-075]
pIC50: 6.15

Compound: C=CC(=O)N1CCN([C@@H]2CN(c3cc(N4CCC5(C=CCO5)CC4)nc(C(F)(F)F)n3)[C@@H]2C)CC1 [Compound 3-011]
pIC50: 6.02

[a] C=CC(=O)N1CCN(C2CN(c3cc(N4CCC5(CC4)OC(C)(C)c4ccccc45)nc(C(F)(F)F)c3C#N)C2)CC1 [Compound 3-040]
[b] C=CC(=O)N1CCN(C2CN(c3cc(N4CCC5(CCCO5)[C@H](CO)C4)nc(C(F)(F)F)c3C#N)C2)CC1 (single isomer, unassigned) [Compound 3-062-1]
Determine, for a and b , which has the greater value of pIC50. Return value: the label identifying the chosen record.
a
(a: 5.55, b: 5.33)

###

- Target system: KRAS^G12C (Homo sapiens, UniProt P01116, C118A/G12C)
- Test: Coupled Nucleotide Exchange Assay
- Measurement setup: GDP-bound KRAS (aa 1-169) G12C/C118A; 2 h compound pre-incubation; SOS-mediated exchange, 30 min; cRAF binding (AlphaLISA)
Result type: IC50 (nM)

Compound: C=CC(=O)N1CCN(C2CN(c3cc(N4CCC5(CCC(=O)N5)CC4)nc(C(F)(F)F)c3C#N)C2)CC1
IC50 (nM): 969

[I] C=CC(=O)N1CCN(C2CN(c3cc(N4CCC5(C=C[C@@H](C)O5)CC4)nc(C(F)(F)F)c3C#N)C2)CC1
[II] C=CC(=O)N1CCN([C@@H]2CN(c3cc(N4CCC5(CC4)OCC(CF)n4ncc(C)c45)nc(C(F)(F)F)n3)[C@@H]2C)CC1 (stereo partly drawn)
// select label with min value of measured IC50 from [ I , II ] Return value: the label identifying the chosen record.
II
(II: 75 nM, I: 1280 nM)

[I] C=CC(=O)N1CCN([C@@H]2CN(c3cc(N4CCC5(CC4)OC[C@@H](C)n4ncc(C)c45)nc(C(F)(F)F)n3)[C@@H]2C)CC1
[II] C=CC(=O)N1CCN(C2CN(c3cc(N4CCC5(CC4)OC(=O)NC5(C)C)nc(C(F)(F)F)c3C#N)C2)CC1
Determine, for I and II , which has the greater value of IC50. Return value: the label identifying the chosen record.
II
(II: 2750 nM, I: 40 nM)

###

- System: A549 cells
- Test: Cell Viability Assay, A549
- Format: cell-based
- Measurement setup: A549; human lung carcinoma; 72 h; CellTiter-Glo
Result type: IC50

Output reported IC50 of the molecule C=CC(=O)N1CCN([C@@H]2CN(c3cc(N4CCC5(CC4)OC4(COC4)c4nccc(C)c45)nc(C(F)F)n3)[C@@H]2C)CC1 [Compound 3-103] on A549 cells.
> 5 µM

Output reported IC50 of the molecule C=CC(=O)N1CCN(C2CN(c3cc(N4CCC5(CC4)OCc4cnn(C)c45)nc(C(F)(F)F)c3C#N)C2)CC1 [Compound 3-049] on A549 cells.
> 5 µM

Output reported IC50 of the molecule C=CC(=O)N1CCN([C@@H]2CN(c3cc(N4CCC5(CC4)OCc4nccc(C)c45)nc(C(F)(F)F)n3)[C@@H]2C)CC1 [Compound 3-079] on A549 cells.
> 5 µM

###

- Target system: KRAS^G12C (Homo sapiens, UniProt P01116, C118A/G12C)
- Test: Coupled Nucleotide Exchange Assay
- Format: biochemical
- Measurement setup: GDP-bound KRAS (aa 1-169) G12C/C118A; 2 h compound pre-incubation; SOS-mediated exchange, 30 min; cRAF binding (AlphaLISA)
Result type: IC50 (µM)

[P] C=CC(=O)N1CCN(C2CN(c3cc(N4CCC5(CC4)OCCC5=O)nc(C(F)(F)F)c3C#N)C2)CC1
[Q] C=CC(=O)N1CCN([C@@H]2CN(c3cc(N4CCC5(CCC(=O)N5C)CC4)nc(C(F)(F)F)n3)[C@@H]2C)CC1
[R] C=CC(=O)N1CCN(C2CN(c3cc(N4CCC5(CC4)CC(F)(F)C5)nc(C(F)(F)F)c3C#N)C2)CC1
[S] C=CC(=O)N1CCN(C2(C)CN(c3cc(N4CCC5(CC4)OCc4ccccc45)nc(C(F)(F)F)n3)C2)CC1
Which order do these items take when sorted by rising IC50? List them. Put the labels in the requested order and write them down.
Q, R, S, P

###

- Target system: KRAS^G12C (Homo sapiens, UniProt P01116, C118A/G12C)
- Test: Coupled Nucleotide Exchange Assay
- Measurement setup: GDP-bound KRAS (aa 1-169) G12C/C118A; 2 h compound pre-incubation; SOS-mediated exchange, 30 min; cRAF binding (AlphaLISA)
pIC50: −log10 of the molar value.
Result type: pIC50

Compound: C=CC(=O)N1CCN([C@@H]2CN(c3cc(N4CCC5(CC4)OCc4nccc(C)c45)nc(C(F)(F)F)n3)[C@@H]2C)CC1 [Compound 3-079]
Result type: pIC50
Numeric readout: 7.09
//
Compound: C=CC(=O)N1CCN([C@@H]2CN(c3cc(N4CC[C@]5(C[C@H]4C)OC[C@@H](CO)n4ncc(C)c45)nc(C(F)F)n3)[C@@H]2C)CC1 (single isomer, unassigned) [Compound 3-088-1]
Result type: pIC50
Numeric readout: 6.97
//
Compound: C=CC(=O)N1CCN(C2CN(c3cc(N4CCC5(CC4)OCc4cnn(C)c45)nc(C(F)(F)F)c3C#N)C2)CC1 [Compound 3-049]
Result type: pIC50
Numeric readout: 6.18
//
Compound: C=CC(=O)N1CCN([C@@H]2CN(c3cc(N4CCC5(CC4)OC[C@H](COC)n4ncc(C)c45)nc(C(F)(F)F)n3)[C@@H]2C)CC1 [Compound 3-098]
Result type: pIC50
Numeric readout: 6.88
//
Compound: C=CC(=O)N1CCN(C2CN(c3cc(N4CCC5(CC4)CCN(C4COC4)C5)nc(C(F)(F)F)c3C#N)C2)CC1 [Compound 3-048]
Result type: pIC50
Numeric readout: 5.64

[P] C=CC(=O)N1CCN(C2CN(c3cc(N4CCC5(CC4)OCc4ccccc45)nc(C(F)(F)F)c3C#N)C2)CC1 [Compound 3-028]
[Q] C=CC(=O)N1CCN(C2CN(c3cc(N4CCC5(CC4)CC(F)(F)CO5)nc(C(F)(F)F)c3C#N)C2)CC1 [Compound 3-044]
// select label with min value of measured pIC50 from [ P , Q ] Return value: the label identifying the chosen record.
Q

[I] C=CC(=O)N1CCN(C2CN(c3cc(N4CCC5(CC4)OCCC5F)nc(C(F)(F)F)c3C#N)C2)CC1 (centres unmarked) [Compound 3-058]
[II] C=CC(=O)N1CCN(C2CN(c3cc(N4CCC5(C=CCOC5)CC4)nc(C(F)F)c3C)C2)CC1 [Compound 3-072]
Determine, for I and II , which has the greater value of pIC50. Return value: the label identifying the chosen record.
I
(I: 6.04, II: 5.31)

###

- Target system: KRAS^G12C (Homo sapiens, UniProt P01116, C118A/G12C)
- Test: Coupled Nucleotide Exchange Assay
- Measurement setup: GDP-bound KRAS (aa 1-169) G12C/C118A; 2 h compound pre-incubation; SOS-mediated exchange, 30 min; cRAF binding (AlphaLISA)
Result type: IC50 (µM)

Compound: C=CC(=O)N1CCN([C@@H]2CN(c3cc(N4CCC5(C[C@@H]4C)OCC=C5C)nc(C(F)(F)F)n3)[C@@H]2C)CC1 (stereo partly drawn) [Compound 3-006]
IC50 / µM: 2.24

[P] C=CC(=O)N1CCN(C2CN(c3cc(N4CCC5(CC4)O[C@@H](C)C=C5Cl)nc(C(F)(F)F)c3C#N)C2)CC1 (single isomer, unassigned) [Compound 3-067-2]
[Q] C=CC(=O)N1CCN([C@@H]2CN(c3cc(N4CCC5(CC4)COc4nccc(C)c45)nc(C(F)(F)F)n3)[C@@H]2C)CC1 [Compound 3-092]
// select label with min value of measured IC50 from [ P , Q ] Return value: the label identifying the chosen record.
P
(P: 0.867 µM, Q: 2.4 µM)
